target_or_system: recombinant Mcl-1 (residues 172-327) (Homo sapiens (Human), UniProt Q07820)
Sequence (Q07820 172-327): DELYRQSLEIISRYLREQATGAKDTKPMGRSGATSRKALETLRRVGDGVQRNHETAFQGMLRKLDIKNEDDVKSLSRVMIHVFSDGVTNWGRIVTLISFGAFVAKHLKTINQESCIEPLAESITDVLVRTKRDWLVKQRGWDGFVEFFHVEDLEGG
run_description: Fluorescence polarization anisotropy competition assay (FITC-Bak or FITC-Bim BH3 peptide) with Mcl-1
Type: binding
details: Table 2; Ki bins given in nM; FITC-Bak or FITC-Bim peptide competition; Ki converted from IC50; read-out: Ki for Inhibition of Mcl-1
property_label: Ki

molecule | target_or_system | value_reported
Cc1cc(OCCCc2c(C(=O)Nc3cccc(C(=O)NS(=O)(=O)c4ccc([N+](=O)[O-])cc4)c3)[nH]c3c(-c4cccnc4C)cccc23)cc(C)c1Cl [I-68] | recombinant Mcl-1 (residues 172-327) (Homo sapiens (Human), UniProt Q07820) | 51 to 100 nM
Cc1cc(OCCCc2c(C(=O)NCCC(=O)NS(=O)(=O)c3ccccc3)[nH]c3ccccc23)cc(C)c1Cl [I-14] | recombinant Mcl-1 (residues 172-327) (Homo sapiens (Human), UniProt Q07820) | 51 to 100 nM
Cc1nn(C)c(C)c1-c1cccc2c(CCCOc3cccc4ccccc34)c(C(=O)Nc3cccc(C(=O)O)c3)[nH]c12 [I-193] | recombinant Mcl-1 (residues 172-327) (Homo sapiens (Human), UniProt Q07820) | < 50 nM
Cc1cc(OCCCc2c3n(c4c(-c5c(C)nn(C)c5C)c(Cl)ccc24)CCCN(c2ccc(-c4nn[nH]n4)cc2)C3=O)cc(C)c1Cl [I-357] | recombinant Mcl-1 (residues 172-327) (Homo sapiens (Human), UniProt Q07820) | < 50 nM
Cc1cc(OCCCc2c3n(c4c(-c5c(C)nn(C)c5C)c(Cl)ccc24)[C@@H](C)CN(Cc2cccc(C(=O)O)c2)C3=O)cc(C)c1Cl [I-151] | recombinant Mcl-1 (residues 172-327) (Homo sapiens (Human), UniProt Q07820) | < 50 nM
Cc1cc(OCCCc2c(C(=O)NCc3cc(C(=O)O)cc(N4CCN(CCC(C)C)CC4)n3)[nH]c3c(-c4c(C)nn(C)c4C)c(Cl)ccc23)cc(C)c1Cl [I-285] | recombinant Mcl-1 (residues 172-327) (Homo sapiens (Human), UniProt Q07820) | < 50 nM
Cc1cc(OCCCc2c(C(=O)NCC(=O)NS(=O)(=O)c3ccccc3)[nH]c3ccccc23)cc(C)c1Cl [I-5] | recombinant Mcl-1 (residues 172-327) (Homo sapiens (Human), UniProt Q07820) | 101 to 299 nM
Cc1cc(OCCCc2c(C(=O)N3CCC(CC(=O)O)CC3)[nH]c3c(-c4c(C)nn(C)c4C)cccc23)cc(C)c1Cl [I-204] | recombinant Mcl-1 (residues 172-327) (Homo sapiens (Human), UniProt Q07820) | 51 to 100 nM
Cc1cc(OCCCc2c3n(c4c(-c5c(C)nn(C)c5C)c(Cl)ccc24)CCCN(c2cccc(C(=O)NS(=O)(=O)C4CC4)c2)C3=O)cc(C)c1Cl [I-369] | recombinant Mcl-1 (residues 172-327) (Homo sapiens (Human), UniProt Q07820) | < 50 nM
Cc1cc(OCCCc2c3n(c4c(-c5c(C)nn(C)c5C)c(Cl)ccc24)CCCN(c2cc(CN(C)C)cc(C(=O)O)c2)C3=O)cc(C)c1Cl [I-226] | recombinant Mcl-1 (residues 172-327) (Homo sapiens (Human), UniProt Q07820) | < 50 nM
Cc1cc(OCCCc2c3n(c4c(-c5c(C)nn(C)c5C)c(Cl)ccc24)C(C)[C@@H](C)N(Cc2ccc(C(=O)O)cn2)C3=O)cc(C)c1Cl (stereo partly shown) [I-146] | recombinant Mcl-1 (residues 172-327) (Homo sapiens (Human), UniProt Q07820) | < 50 nM
Cc1cc(OCCCc2c(C(=O)NCCC(=O)NS(=O)(=O)c3cccnc3)[nH]c3ccccc23)cc(C)c1Cl [I-15] | recombinant Mcl-1 (residues 172-327) (Homo sapiens (Human), UniProt Q07820) | 101 to 299 nM
Cc1cc(OCCCc2c3n(c4c(-c5c(C)nn(C)c5C)c(Cl)ccc24)CCCN(c2ccc(CC(=O)O)cc2)C3=O)cc(C)c1Cl [I-237] | recombinant Mcl-1 (residues 172-327) (Homo sapiens (Human), UniProt Q07820) | < 50 nM
